Origin of values: patent US9511052B2

Experiment: Liver microsome stability, rhesus monkey
Type: in vitro ADME
Settings: liver microsomes, read-out: Liver Microsome Stability (t1/2)
PARAMETER: half-life (min)

(I) CCC(c1ccc(Br)cc1)(C(C)O)n1ncc2c(NS(C)(=O)=O)cccc21 (single isomer, unassigned)
(II) CCC(O)C(CC)(c1ccc(C(F)(F)F)cc1)n1ncc2c(NS(C)(=O)=O)cccc21 (single isomer, unassigned)
(III) CCC(c1ccc(C(F)(F)F)cc1)(C(O)C(F)F)n1ncc2c(NS(C)(=O)=O)cccc21 (single isomer, unassigned)
IN: I'd appreciate it if you could rank the compounds mentioned above by half-life, largest value first. Ranked list of labels, please, in the requested order.
OUT: II, III, I
(II: 61 min, III: 42 min, I: 23 min)
